System: MDA-MB-175 cells
Assay: MTT cell proliferation assay
Format: cell-based
Conditions: 72-hour MTT
parameterMeasured: IC50

* Nc1ccc(/C=C/C(=O)NCc2cc3cc(-c4ccc(C(=O)N5CCC(F)(F)CC5)cn4)cc(C(F)(F)F)c3o2)cn1 | > 10 µM

---

Test system: RKO cells
Experiment: MTT cell proliferation assay
Format: cell-based
Details: Homo sapiens, 72-hour MTT
pIC50: −log10 of the molar value.
parameterMeasured: pIC50

• Nc1ccc(/C=C/C(=O)NCc2cc3cc(-c4ccc(C(=O)N5CCC(F)(F)CC5)cn4)cc(C(F)(F)F)c3o2)cn1 = 7.30

---

Test system: Hep G2 cells
Test: MTT cell proliferation assay
Type: cell-based
Conditions: Homo sapiens, HepG2; Hep G2 cell line; read-out: MTT Assay IC50, Hep G2
parameterMeasured: IC50

• Nc1ccc(/C=C/C(=O)NCc2cc3cc(-c4ccc(C(=O)N5CCOCC5)cc4)cc(Cl)c3o2)cn1 = 100 to 5000 nM
